B1: ZNF8 (parent)
chain: KPYTCSVCGKSFSRTTCLFLHLRT

Variants of: B1
Assay: protein stability index of a GFP-peptide fusion (GPS, HEK-293T) (PSI 1-6); higher = more stable;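 also: lentivirally expressed fusions sorted by FACS into six bins by GFP to DsRed ratio, PSI derived from sequencing read proportions per bin multiplied by bin number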
Conditions: c terminus: a fixed tail appended
Kind request: treat 2 as inclusive, so protein stability index at 2 or higher is Met, anything lower is Not met.

Worked cases, answers included:
query-sequence | discrete-label
KPYTCSVCGKIFSRTTCLFLHLRT [S11I] | Met
KPYTCSVCGKSFSRTDCLFLHLRT [T16D] | Met
KPYTCSVCGKSFSLTTCLFLHLRT [R14L] | Not met

Input line: Is it the case that KPYTCSVCGKSFSRTTCLFLHLST [R23S] has protein stability index reaching or exceeding 2?
Output line: Not met

Input line: KPYTCSVCGKSFSRTTCLFLHLCT [R23C] , same question.
Output line: Met

Input line: KPYTCSVCGKSFSRCTCLFLHLRT [T15C] , same question.
Output line: Met

Input line: KPYTCSVCGKSFSRTTGLFLHLRT [C17G] , same question.
Output line: Met
